Data provenance: the RNAGym collection of RNA variant scans (doi:10.7554/elife.80360)

B1: HDV Ribozyme (parent)
chain: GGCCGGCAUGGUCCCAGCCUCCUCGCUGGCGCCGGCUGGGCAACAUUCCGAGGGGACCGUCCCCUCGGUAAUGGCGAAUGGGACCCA

Variants of: B1
METHOD: self-cleavage, relative activity (ratio to wild type); higher = more cleavage; co-transcriptional
Class key for self-cleavage values: group A (below 0.1), group B (0.1 to below 0.6), group C (0.6 or more)

# count of solved cases: 3
   mutant_name    class
0    A56C C86U  group C
1    G53C G55C  group C
2    G34U G39U  group B

Category of G54U A70C , please. group B

Category of A16G G39C , please. group A

Category of C3A U9C , please. group B

Category of G1C C64U , please. group B

Category of C14G A45U , please. group B

Category of G17U A83C , please. group B

Category of C13G G40C , please. group A
